assay: logP determination by retention times (calibration with alkan-2-ones); conditions: logP, * HPLC reversed-phase C18, 40° C., mobile phase 0.1% aqueous formic acid and acetonitrile, linear gradient 10% to 95% acetonitrile
Reported Endpoint: chromatographic logP
One number for each entry.

These recorded examples may help you get a feel for the data.
molecule="COc1ccc(Nc2nccc(-c3sc(NCC4CCCO4)nc3C)n2)cn1 (stereo not shown)" measured_result=1.57
molecule=Cc1nc(C2CC2)sc1-c1ccnc(Nc2ccc(CNC(=O)OC(C)(C)C)cc2)n1 measured_result=3.46
molecule=CC(=O)Nc1nc(C)c(-c2ccnc(Nc3ccccc3)n2)s1 measured_result=2.09
molecule=COCCNc1nc(C)c(-c2ccnc(Nc3ccc4c(c3)OCCO4)n2)s1 measured_result=1.63
molecule="COCC(C)Nc1nc(C)c(-c2ccnc(Nc3ccc(N4CCCC4=O)cc3)n2)s1 (stereo not shown)" measured_result=1.64
molecule=CC(=O)c1cccc(Nc2nccc(-c3sc(N4CCOCC4)nc3C)n2)c1 measured_result=2.16

State the recorded chromatographic logP for every item in the following list.
1. CCc1nc(C)c(-c2ccnc(N(C(=O)OC)c3ccccc3)n2)s1
2. Cc1nc(C(F)(F)F)c(-c2ccnc(Nc3ccc4c(c3)OCO4)n2)s1
3. Cc1nc(C)c(-c2ccnc(Nc3cccnc3)n2)s1
4. COCCNc1nc(C)c(-c2ccnc(Nc3ccc4c(c3)OCO4)n2)s1
5. COCCNc1nc(C)c(-c2ccnc(Nc3ccc(C)c([N+](=O)[O-])c3)n2)s1
6. COc1ccc(Nc2nccc(-c3sc(C)nc3C)n2)cc1O

result:
2.59
3.21
0.98
1.65
2.17
1.79
